experiment: Phase 1 Study ABI-1648-006, single oral dose pharmacokinetics; conditions: female, human, plasma, po, 5 mg
experimental readout: Tmax

q: Returns the measured Tmax for the input compound. Input: CO[C@H]1/C=C/O[C@@]2(C)Oc3c(C)c(O)c4c(=O)c(c5oc6cc(N7CCN(CC(C)C)CC7)cc(O)c6nc-5c4c3C2=O)NC(=O)/C(C)=C\C=C\[C@H](C)[C@H](O)[C@@H](C)[C@@H](O)[C@@H](C)[C@H](OC(C)=O)[C@@H]1C [rifalazil]
a: 5 h

* * *

assay: Phase 1 Study ABI-1648-006, single oral dose pharmacokinetics; conditions: female, human, plasma, po, 12.5 mg
experimental readout: Tmax (h)
Give just the numeric value; h need not be written.

q: Returns the measured Tmax for the input compound. Input: CO[C@H]1/C=C/O[C@@]2(C)Oc3c(C)c(O)c4c(=O)c(c5oc6cc(N7CCN(CC(C)C)CC7)cc(O)c6nc-5c4c3C2=O)NC(=O)/C(C)=C\C=C\[C@H](C)[C@H](O)[C@@H](C)[C@@H](O)[C@@H](C)[C@H](OC(C)=O)[C@@H]1C
a: 6.2

* * *

assay: Phase 1 Study ABI-1648-006, multiple oral dose pharmacokinetics; settings: both, human, plasma, po
experimental readout: Tmax

q: Returns the measured Tmax for the input compound. Input: CO[C@H]1/C=C/O[C@@]2(C)Oc3c(C)c(O)c4c(=O)c(c5oc6cc(N7CCN(CC(C)C)CC7)cc(O)c6nc-5c4c3C2=O)NC(=O)/C(C)=C\C=C\[C@H](C)[C@H](O)[C@@H](C)[C@@H](O)[C@@H](C)[C@H](OC(C)=O)[C@@H]1C [rifalazil]
a: 4 to 6.3 h

* * *

experiment: Phase 1 Study ABI-1648-006, single oral dose pharmacokinetics; settings: female, human, plasma, po, 25 mg, Cmax GMean (geometric mean), females, single oral dose 25 mg
experimental readout: Cmax
Just the number plus its unit, please.

q: Returns the measured Cmax for the input compound. Input: CO[C@H]1/C=C/O[C@@]2(C)Oc3c(C)c(O)c4c(=O)c(c5oc6cc(N7CCN(CC(C)C)CC7)cc(O)c6nc-5c4c3C2=O)NC(=O)/C(C)=C\C=C\[C@H](C)[C@H](O)[C@@H](C)[C@@H](O)[C@@H](C)[C@H](OC(C)=O)[C@@H]1C
a: 33.3 ng/mL

* * *

assay: Phase 1 Study ABI-1648-006, single oral dose pharmacokinetics; settings: female, human, plasma, po, 2.5 mg, AUC0−∞ GMean (geometric mean), females, single oral dose 2.5 mg
experimental readout: AUC(0-inf) (ng·h/mL)
Give just the numeric value; ng·h/mL need not be written.

q: Returns the measured AUC(0-inf) for the input compound. Input: CO[C@H]1/C=C/O[C@@]2(C)Oc3c(C)c(O)c4c(=O)c(c5oc6cc(N7CCN(CC(C)C)CC7)cc(O)c6nc-5c4c3C2=O)NC(=O)/C(C)=C\C=C\[C@H](C)[C@H](O)[C@@H](C)[C@@H](O)[C@@H](C)[C@H](OC(C)=O)[C@@H]1C [rifalazil]
a: 168

* * *

assay: Phase 1 Study ABI-1648-006, single oral dose pharmacokinetics; conditions: male, human, plasma, po, 12.5 mg
experimental readout: Tmax

q: Returns the measured Tmax for the input compound. Input: CO[C@H]1/C=C/O[C@@]2(C)Oc3c(C)c(O)c4c(=O)c(c5oc6cc(N7CCN(CC(C)C)CC7)cc(O)c6nc-5c4c3C2=O)NC(=O)/C(C)=C\C=C\[C@H](C)[C@H](O)[C@@H](C)[C@@H](O)[C@@H](C)[C@H](OC(C)=O)[C@@H]1C [rifalazil]
a: 5 h

* * *

assay: Phase 1 Study ABI-1648-006, single oral dose pharmacokinetics; conditions: male, human, plasma, po, 25 mg, Cmax GMean (geometric mean), males, single oral dose 25 mg
experimental readout: Cmax

q: Returns the measured Cmax for the input molecule. Input: CO[C@H]1/C=C/O[C@@]2(C)Oc3c(C)c(O)c4c(=O)c(c5oc6cc(N7CCN(CC(C)C)CC7)cc(O)c6nc-5c4c3C2=O)NC(=O)/C(C)=C\C=C\[C@H](C)[C@H](O)[C@@H](C)[C@@H](O)[C@@H](C)[C@H](OC(C)=O)[C@@H]1C
a: 0.0239 µg/mL

* * *

assay: Phase 1 Study ABI-1648-006, single oral dose pharmacokinetics; conditions: both, human, plasma, po, mean elimination t1/2, range across groups, single oral doses 2.5-25 mg, males and females
experimental readout: half-life

q: Returns the measured half-life for the input molecule. Input: CO[C@H]1/C=C/O[C@@]2(C)Oc3c(C)c(O)c4c(=O)c(c5oc6cc(N7CCN(CC(C)C)CC7)cc(O)c6nc-5c4c3C2=O)NC(=O)/C(C)=C\C=C\[C@H](C)[C@H](O)[C@@H](C)[C@@H](O)[C@@H](C)[C@H](OC(C)=O)[C@@H]1C
a: 101 to 150 h

* * *

test: Phase 1 Study ABI-1648-006, single oral dose pharmacokinetics; conditions: female, human, plasma, po, 2.5 mg
experimental readout: Tmax (h)
Give just the numeric value; h need not be written.

q: Returns the measured Tmax for the input compound. Input: CO[C@H]1/C=C/O[C@@]2(C)Oc3c(C)c(O)c4c(=O)c(c5oc6cc(N7CCN(CC(C)C)CC7)cc(O)c6nc-5c4c3C2=O)NC(=O)/C(C)=C\C=C\[C@H](C)[C@H](O)[C@@H](C)[C@@H](O)[C@@H](C)[C@H](OC(C)=O)[C@@H]1C [rifalazil]
a: 4.8

* * *

test: Phase 1 Study ABI-1648-006, single oral dose pharmacokinetics; conditions: male, human, plasma, po, 25 mg, Distribution t1/2 Mean, males, single oral dose 25 mg
experimental readout: half-life

q: Returns the measured half-life for the input molecule. Input: CO[C@H]1/C=C/O[C@@]2(C)Oc3c(C)c(O)c4c(=O)c(c5oc6cc(N7CCN(CC(C)C)CC7)cc(O)c6nc-5c4c3C2=O)NC(=O)/C(C)=C\C=C\[C@H](C)[C@H](O)[C@@H](C)[C@@H](O)[C@@H](C)[C@H](OC(C)=O)[C@@H]1C
a: 8.7 h

* * *

experiment: Phase 1 Study ABI-1648-006, single oral dose pharmacokinetics; details: male, human, plasma, po, 25 mg, AUC0−∞ Mean, males, single oral dose 25 mg
experimental readout: AUC(0-inf) (ng·h/mL)
Give just the numeric value; ng·h/mL need not be written.

q: Returns the measured AUC(0-inf) for the input molecule. Input: CO[C@H]1/C=C/O[C@@]2(C)Oc3c(C)c(O)c4c(=O)c(c5oc6cc(N7CCN(CC(C)C)CC7)cc(O)c6nc-5c4c3C2=O)NC(=O)/C(C)=C\C=C\[C@H](C)[C@H](O)[C@@H](C)[C@@H](O)[C@@H](C)[C@H](OC(C)=O)[C@@H]1C [rifalazil]
a: 683

* * *

assay: Phase 1 Study ABI-1648-006, single oral dose pharmacokinetics; settings: male, human, plasma, po, 2.5 mg
experimental readout: Tmax (h)
Give just the numeric value; h need not be written.

q: Returns the measured Tmax for the input compound. Input: CO[C@H]1/C=C/O[C@@]2(C)Oc3c(C)c(O)c4c(=O)c(c5oc6cc(N7CCN(CC(C)C)CC7)cc(O)c6nc-5c4c3C2=O)NC(=O)/C(C)=C\C=C\[C@H](C)[C@H](O)[C@@H](C)[C@@H](O)[C@@H](C)[C@H](OC(C)=O)[C@@H]1C [rifalazil]
a: 5.3

* * *

Assay: Phase 1 pharmacokinetic analyses by gender, single or multiple doses 2.5-50 mg
Type: in vivo, human
Conditions: both sexes, human, plasma, oral; single or multiple doses 2.5-50 mg, males and females; read-out: mean time to maximum concentration (Tmax)
Experimental: There were no significant differences between males and females for AUC0-∞ when data were normalized to 1 mg/kg following single doses of 2.5 to 50 mg rifalazil (see FIG. 3 and FIG. 4). The Vdβ/F was large indicating extensive distribution in the body. […] The mean minimum plasma concentrations (Cmin) of rifalazil over time during 5 days of dosing with 2.5 and 5 mg rifalazil increased from Days 2-6 in both males and females at both dose levels.
experimental readout: Tmax

q: Returns the measured Tmax for the input compound. Input: CO[C@H]1/C=C/O[C@@]2(C)Oc3c(C)c(O)c4c(=O)c(c5oc6cc(N7CCN(CC(C)C)CC7)cc(O)c6nc-5c4c3C2=O)NC(=O)/C(C)=C\C=C\[C@H](C)[C@H](O)[C@@H](C)[C@@H](O)[C@@H](C)[C@H](OC(C)=O)[C@@H]1C
a: 4 to 6 h

* * *

experiment: Phase 1 Study ABI-1648-006, multiple oral dose pharmacokinetics; details: female, human, plasma, oral, 12.5 mg
experimental readout: AUC (ng·h/mL)
Give just the numeric value; ng·h/mL need not be written.

q: Returns the measured AUC for the input molecule. Input: CO[C@H]1/C=C/O[C@@]2(C)Oc3c(C)c(O)c4c(=O)c(c5oc6cc(N7CCN(CC(C)C)CC7)cc(O)c6nc-5c4c3C2=O)NC(=O)/C(C)=C\C=C\[C@H](C)[C@H](O)[C@@H](C)[C@@H](O)[C@@H](C)[C@H](OC(C)=O)[C@@H]1C [rifalazil]
a: 339
